Target: T1, recombinant human CFD mutant 1 (R157A, R207A), His-tagged (human, UniProt P00746 26-253)
T1 construct: positions are linear positions in the mature protein; also called rhCFD-mut1-His; Mut1
T1 sequence (P00746 26-253 R182A/R232A limits assumed): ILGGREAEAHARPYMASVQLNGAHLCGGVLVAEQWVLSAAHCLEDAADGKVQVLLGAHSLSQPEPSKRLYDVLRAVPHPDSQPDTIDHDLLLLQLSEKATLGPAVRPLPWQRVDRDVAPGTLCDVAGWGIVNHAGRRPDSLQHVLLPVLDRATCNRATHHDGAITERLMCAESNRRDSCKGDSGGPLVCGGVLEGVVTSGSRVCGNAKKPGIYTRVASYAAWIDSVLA
Experiment: SPR MX96
observable: pKd
Scale note: pKd = -log10(concentration in M).

INSERT INTO measurements (binder, observable, result) VALUES
  ('KCD131 (antibody, V domains shown, chimeric) VH: QVQLQQSGPELVKPGASVKISCKASAYTFTDYYINWVKQRPGQGPEWIGWIFPGSNSTYSNEKFEVKATLTVDESSSTAYMLLSSLTSEDSAVYFCARLGYFGSSYHALDYWGQGTSVTVSS VL: DIQMTQSPASLSVSVGETVTITCRASENIYSHLAWFQQKQGKSPRLLVYSATNLPDGVPSRFSGSGSGTQYSLKINILQSEDFGSYYCQHFWGTPWTFGGGTKLEIK', 'pKd', 10.35);

Now for the binder whose pKd we want.
Measured pKd of KCD040 (antibody, V domains shown, chimeric) VH: EVQLQQSGAELVKPGASVKLSCTASDFNIKDTYMHWVMQRPEQGLEWIGKIDPANGNTEFDPKFQGKATITADTSSNTAYLQLTSLTSEDTAVYYCTRAMDYWGQGTSVTVSS VL: QIVLTQSPAIMSASPGEKVTMTCSAGSSVSYMYWYQQKPGSSPRVLIYDTSNLASGVPVRFSGSGSGTSYSLTISRMEAEDAATYYCQQWSNYPYTFGGGTKLEIK : 9.12
